In this section we review reported dissociation percent values for a set of compounds.
Settings: rat plasma, 37° C., 5 s
Give the value, in units of %, as a plain number.

# COMPOUND, UNIT_ABBREV, RECORDED_MEASUREMENT
records = [
    ("CC(C)c1cccc(C(C)C)c1OC(=O)[C@@H](CCN(C)C)C(F)(F)F.Cl", "%", 77.5),
]

Query string: Item CC(C)NCC(CF)C(=O)Oc1c(C(C)C)cccc1C(C)C.CS(=O)(=O)O (racemic) has what recorded dissociation percent?
Result string: 24.2

###

Tested on: KM mice
Assay: ED50 and LD50 test concerning anesthesia (sequential method) in mice
Type: in vivo
Conditions: caudal vein injection, 6 mg/ml solution, confirmation test
In this section we review reported Mouse LD50 values for a set of molecules.

Some solved entries appear below for comparison.
# MOLECULE, RECORDED_METRIC, RECORDED_MEASUREMENT
measured = [
    ("CC(C)c1cccc(C(C)C)c1OC(=O)[C@H](F)CCN(C)C.Cl [Compound E2]", "Mouse LD50", "48.0 mg/kg"),
    ("CC(C)c1cccc(C(C)C)c1O [Propofol, reference compound]", "Mouse LD50", "42.9 mg/kg"),
    ("CC(C)c1cccc(C(C)C)c1OC(=O)C(F)CCC(=O)[O-].[Na+] (racemic)", "Mouse LD50", "55.4 mg/kg"),
]

Next up:
Query string: Item CC(C)c1cccc(C(C)C)c1OC(=O)C(F)CC(=O)[O-].[Na+] (stereo not shown) has what recorded Mouse LD50?
Result string: 56.6 mg/kg
